Attribution: patent US20220288069A1

# target-or-system: FLT3 (Homo sapiens, UniProt P36888)
# Sequence (P36888 27-993): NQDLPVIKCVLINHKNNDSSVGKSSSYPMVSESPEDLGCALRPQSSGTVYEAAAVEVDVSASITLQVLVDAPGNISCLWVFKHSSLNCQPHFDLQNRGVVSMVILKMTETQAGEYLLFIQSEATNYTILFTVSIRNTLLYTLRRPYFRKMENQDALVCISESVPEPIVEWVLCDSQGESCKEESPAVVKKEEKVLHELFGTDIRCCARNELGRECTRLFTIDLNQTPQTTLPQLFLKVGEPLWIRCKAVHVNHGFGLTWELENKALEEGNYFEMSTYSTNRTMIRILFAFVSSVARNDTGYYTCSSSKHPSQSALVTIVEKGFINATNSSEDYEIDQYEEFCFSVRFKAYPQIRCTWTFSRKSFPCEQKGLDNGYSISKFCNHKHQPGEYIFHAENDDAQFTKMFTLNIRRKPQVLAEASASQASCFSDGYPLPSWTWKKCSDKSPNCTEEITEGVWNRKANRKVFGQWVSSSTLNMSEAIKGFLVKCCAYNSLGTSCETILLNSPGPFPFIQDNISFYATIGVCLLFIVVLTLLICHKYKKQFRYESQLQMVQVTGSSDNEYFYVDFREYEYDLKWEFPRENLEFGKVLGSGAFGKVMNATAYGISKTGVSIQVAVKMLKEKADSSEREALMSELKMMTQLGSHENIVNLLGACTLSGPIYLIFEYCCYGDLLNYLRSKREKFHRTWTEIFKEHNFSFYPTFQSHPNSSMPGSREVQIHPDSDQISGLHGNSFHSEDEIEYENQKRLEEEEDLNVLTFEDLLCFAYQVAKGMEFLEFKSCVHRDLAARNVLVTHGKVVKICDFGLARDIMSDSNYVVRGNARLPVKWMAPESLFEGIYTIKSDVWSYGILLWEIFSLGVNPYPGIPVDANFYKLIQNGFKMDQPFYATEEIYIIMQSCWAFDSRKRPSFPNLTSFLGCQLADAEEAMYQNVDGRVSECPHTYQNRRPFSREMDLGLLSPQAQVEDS
# assay-text: Caliper mobility shift kinase inhibition assay, FLT3
# condition: recombinant kinase; enzyme 0.1 nM, ATP 95 μM, incubation 3 hr
// reported IC50 per item

Study these solved cases before continuing.
• C=CC(=O)N(C)[C@@H](C)C(=O)NC[C@@H]1CCc2c([nH]c(/C=C3\C(=O)Nc4ccc(F)cc43)c2C)C1 [Compound 28] = < 10 nM
• Cc1c(/C=C2\C(=O)Nc3ccc(F)cc32)[nH]c2c1CC[C@H](CNC(=O)[C@H](C)N(C)C(=O)/C=C/CN(C)C)C2 [Compound 29] = < 10 nM
• Cc1c(/C=C2\C(=O)Nc3ccc(F)cc32)[nH]c2c1CC[C@@H](CNC(=O)[C@H](C)N(C)C(=O)/C=C/CN(C)C)C2 [Compound 30] = < 10 nM

Input: Data request, read-out IC50, for C=CC(=O)N(C)[C@@H](C)C(=O)NC[C@H]1CCc2c([nH]c(/C=C3\C(=O)Nc4ccc(F)cc43)c2C)C1 [Compound 27]
Output: < 10 nM

Input: Data request, read-out IC50, for C/C=C/C(=O)N(C)[C@@H](C)C(=O)NCCOc1cc(Nc2ncc(-c3ccccc3)s2)nc(C)n1 [Compound 16]
Output: 10 to 100 nM

Input: Data request, read-out IC50, for CCC(=O)N(C)[C@@H](C)C(=O)NCCNc1cc(Nc2ncc(-c3ccccc3)s2)nc(C)n1 [Compound 10]
Output: 10 to 100 nM

Input: Data request, read-out IC50, for C=CC(=O)N(C)[C@@H](C)C(=O)NCCOc1cc(Nc2ncc(C3CCC3)s2)nc(CC)n1 [Compound 7]
Output: < 10 nM

Input: Data request, read-out IC50, for C=CC(=O)N(C)[C@@H](C)C(=O)NCCOc1cc(C)nc(Nc2ncc(-c3ccccc3)s2)c1 [Compound 12]
Output: < 10 nM
